system: Plasmodium falciparum; experiment: Antimalarial activity against Plasmodium falciparum IMT L1 harboring Ppcrt M74I, N75E, K76T, A220S, Q271E mutant gene, Pmdr1 N86Y mutant gene and Pfmrp H191Y and S437A mutant gene assessed as incorporation of [3]H hypoxanthine after 48 hrs by scintillation counter; assay type: functional, organism-based; conditions: IMT L1, 48 h
Reported endpoint: pIC50
Please keep in mind that pIC50 is minus log10 of the molar concentration; only the number is needed.

- Smiles code: "Clc1ccc2c(N3CCN(CCCN4CCN(c5ccnc6cc(Cl)ccc56)CC4)CC3)ccnc2c1"
  Measurement: 7.33

Please turn your attention to the following entry.
# pIC50 (compound: C[C@H]1[C@@H](O)O[C@@H]2O[C@@]3(C)CC[C@H]4[C@H](C)CC[C@@H]1[C@@]24OO3 ) is 9.05

---

Entries annotated with measured pIC50
test system: Plasmodium falciparum; test: Antimalarial activity against Plasmodium falciparum IMT Guy assessed as inhibition of [3H] incorporation after 48 hrs by scintillation counter; type: functional, organism-based
Please treat pIC50 as minus the base-10 logarithm of the molar concentration.

Below are worked cases with known answers.
- Smiles code: "CCNCc1cc(Nc2ccnc3cc(Cl)ccc23)ccc1O"
  pIC50: 7.35
- Smiles code: "C=C[C@H]1CN2CC[C@H]1C[C@H]2[C@H](O)c1ccnc2ccc(OC)cc12"
  pIC50: 6.49

// next entry
The measured pIC50 associated with Clc1ccc2c(N3CCN(CCCN4CCN(c5ccnc6cc(Cl)ccc56)CC4)CC3)ccnc2c1 reads 7.20

---

test system: Plasmodium falciparum; assay: Antimalarial activity against Plasmodium falciparum IMT 9881 assessed as inhibition of [3H] incorporation after 48 hrs by scintillation counter; assay type: functional, organism-based
Listed below: pIC50 values for each entry.
Scale note: pIC50 = -log10(concentration in M).

Previously resolved entries follow.
- Molecule: "CCNCc1cc(Nc2ccnc3cc(Cl)ccc23)ccc1O [DESETHYL AMODIAQUINE]"
  Assay target: "Plasmodium falciparum"
  Reported endpoint: "pIC50"
  Measurement: 7.47
- Molecule: "C[C@H]1c2cccc(O)c2C(=O)C2=C(O)[C@]3(O)C(=O)C(C(N)=O)=C(O)[C@@H](N(C)C)[C@@H]3[C@@H](O)[C@@H]21 [DOXYCYCLINE]"
  Assay target: "Plasmodium falciparum"
  Reported endpoint: "pIC50"
  Measurement: 5.06

Short answer on Plasmodium falciparum for C[C@H]1[C@@H](O)O[C@@H]2O[C@@]3(C)CC[C@H]4[C@H](C)CC[C@@H]1[C@@]24OO3 [ARTENIMOL] , pIC50: 8.46

---

This listing pairs molecules with measured pIC50.
test system: Plasmodium falciparum; assay: Antimalarial activity against Plasmodium falciparum 106/1 harboring Ppcrt M74I, N75E, K76T, A220S, Q271E, N326S and I356T mutant gene, Pmdr1 N86Y mutant gene and Pfmrp H191Y and S437A mutant gene assessed as incorporation of [3]H hypoxanthine after 48 hrs by scintillation counter; assay type: functional, organism-based; settings: 106/1, 48 h
pIC50 here is simply -log10 of the concentration when that concentration is written in mol/L.

- Smiles code: "Clc1ccc2c(N3CCN(CCCN4CCN(c5ccnc6cc(Cl)ccc56)CC4)CC3)ccnc2c1"
  Reported endpoint: "pIC50"
  Measurement: 7.16

Consider now this further molecule.
Simply: C[C@H]1[C@@H](O)O[C@@H]2O[C@@]3(C)CC[C@H]4[C@H](C)CC[C@@H]1[C@@]24OO3 , Plasmodium falciparum, pIC50 = 8.24
